Biological target: T1, pN-TALER IV-1-EE2 (GinL7C7-EE2-TALE13) (synthetic)
T1 chain: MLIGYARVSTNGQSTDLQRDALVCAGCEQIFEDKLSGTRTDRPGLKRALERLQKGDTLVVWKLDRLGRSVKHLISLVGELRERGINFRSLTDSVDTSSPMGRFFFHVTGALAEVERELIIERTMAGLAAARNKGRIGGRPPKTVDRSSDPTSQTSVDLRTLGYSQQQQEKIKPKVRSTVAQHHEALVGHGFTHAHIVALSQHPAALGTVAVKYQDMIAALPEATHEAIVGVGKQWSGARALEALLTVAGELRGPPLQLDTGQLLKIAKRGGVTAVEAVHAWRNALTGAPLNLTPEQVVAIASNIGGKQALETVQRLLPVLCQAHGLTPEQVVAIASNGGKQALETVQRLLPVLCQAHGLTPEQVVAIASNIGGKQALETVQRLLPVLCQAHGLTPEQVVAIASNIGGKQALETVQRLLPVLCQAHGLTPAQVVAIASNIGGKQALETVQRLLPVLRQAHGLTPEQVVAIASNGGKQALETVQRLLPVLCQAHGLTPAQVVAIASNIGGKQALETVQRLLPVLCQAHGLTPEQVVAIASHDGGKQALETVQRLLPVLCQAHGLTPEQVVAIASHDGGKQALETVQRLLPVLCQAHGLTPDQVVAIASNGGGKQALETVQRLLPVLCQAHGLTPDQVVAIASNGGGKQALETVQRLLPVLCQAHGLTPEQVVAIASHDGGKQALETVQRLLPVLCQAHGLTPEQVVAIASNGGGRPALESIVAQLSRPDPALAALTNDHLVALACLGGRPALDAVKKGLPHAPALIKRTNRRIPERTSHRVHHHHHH
Assay: cell_activity; E. coli
Details: tags: 6-His
observable: activity (score)
Respond numerically; units are score and should not be typed.

Gin20TALE+6 (dsDNA) DNA 1: AGAAGGTATTTATATAGTTATCCAAAACCATGGTTTACAGGACGTATATAAATACCTTCT DNA 2: AGAAGGTATTTATATACGTCCTGTAAACCATGGTTTTGGATAACTATATAAATACCTTCT | 2

Query :: Which activity is reported for this binder? Gin20TALE+9 (dsDNA) DNA 1: AGAAGGTATTTATATAGGCATTATCCAAAACCATGGTTTACAGGACACGGTATATAAATACCTTCT DNA 2: AGAAGGTATTTATATACCGTGTCCTGTAAACCATGGTTTTGGATAATGCCTATATAAATACCTTCT
Result :: 2

Query :: Would you kindly repeat that for Gin20TALE+5 (dsDNA) DNA 1: AGAAGGTATTTATATATTATCCAAAACCATGGTTTACAGGACTATATAAATACCTTCT DNA 2: AGAAGGTATTTATATAGTCCTGTAAACCATGGTTTTGGATAATATATAAATACCTTCT ?
Result :: 1

Query :: Would you kindly repeat that for Gin20TALE+0 (dsDNA) DNA 1: AGAAGGTATTTATATCCAAAACCATGGTTTACAGTATAAATACCTTCT DNA 2: AGAAGGTATTTATACTGTAAACCATGGTTTTGGATATAAATACCTTCT ?
Result :: 1

Query :: Would you kindly repeat that for Gin20TALE+1 (dsDNA) DNA 1: AGAAGGTATTTATATTCCAAAACCATGGTTTACAGATATAAATACCTTCT DNA 2: AGAAGGTATTTATATCTGTAAACCATGGTTTTGGAATATAAATACCTTCT ?
Result :: 1

Query :: Would you kindly repeat that for Gin18TALE+0 (dsDNA) DNA 1: AGAAGGTATTTATACCAAAACCATGGTTTACATATAAATACCTTCT DNA 2: AGAAGGTATTTATATGTAAACCATGGTTTTGGTATAAATACCTTCT ?
Result :: 1

Query :: Would you kindly repeat that for Gin20TALE+10 (dsDNA) DNA 1: AGAAGGTATTTATATAGGCACTTATCCAAAACCATGGTTTACAGGACCACGGTATATAAATACCTTCT DNA 2: AGAAGGTATTTATATACCGTGGTCCTGTAAACCATGGTTTTGGATAAGTGCCTATATAAATACCTTCT ?
Result :: 1

Query :: Would you kindly repeat that for Gin20TALE+3 (dsDNA) DNA 1: AGAAGGTATTTATATAATCCAAAACCATGGTTTACAGGTATATAAATACCTTCT DNA 2: AGAAGGTATTTATATACCTGTAAACCATGGTTTTGGATTATATAAATACCTTCT ?
Result :: 1

Query :: Would you kindly repeat that for Gin20TALE+4 (dsDNA) DNA 1: AGAAGGTATTTATATATATCCAAAACCATGGTTTACAGGCTATATAAATACCTTCT DNA 2: AGAAGGTATTTATATAGCCTGTAAACCATGGTTTTGGATATATATAAATACCTTCT ?
Result :: 1.5

Query :: Would you kindly repeat that for Gin18TALE+1 (dsDNA) DNA 1: AGAAGGTATTTATATCCAAAACCATGGTTTACAATATAAATACCTTCT DNA 2: AGAAGGTATTTATATTGTAAACCATGGTTTTGGATATAAATACCTTCT ?
Result :: 1

Query :: Would you kindly repeat that for Gin20TALE+12 (dsDNA) DNA 1: AGAAGGTATTTATATAGGCACACTTATCCAAAACCATGGTTTACAGGACCACACGGTATATAAATACCTTCT DNA 2: AGAAGGTATTTATATACCGTGTGGTCCTGTAAACCATGGTTTTGGATAAGTGTGCCTATATAAATACCTTCT ?
Result :: 2

Query :: Would you kindly repeat that for Gin20TALE+7 (dsDNA) DNA 1: AGAAGGTATTTATATAGGTTATCCAAAACCATGGTTTACAGGACGGTATATAAATACCTTCT DNA 2: AGAAGGTATTTATATACCGTCCTGTAAACCATGGTTTTGGATAACCTATATAAATACCTTCT ?
Result :: 2.5

Query :: Would you kindly repeat that for Gin20TALE+2 (dsDNA) DNA 1: AGAAGGTATTTATATATCCAAAACCATGGTTTACAGTATATAAATACCTTCT DNA 2: AGAAGGTATTTATATACTGTAAACCATGGTTTTGGATATATAAATACCTTCT ?
Result :: 1

Sourced from patent US20140193915
